All figures here come from the RNAGym collection of RNA variant scans (doi:10.1073/pnas.2313332121).

What polymerase ribozyme fitness (log ratio) was measured for each of the following?
B1: TPR t1 (parent)
chain: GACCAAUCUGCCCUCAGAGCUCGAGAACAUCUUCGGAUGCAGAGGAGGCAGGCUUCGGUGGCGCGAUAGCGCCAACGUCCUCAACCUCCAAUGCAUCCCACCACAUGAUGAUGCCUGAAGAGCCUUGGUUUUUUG

Variants of: B1
assay details: polymerase ribozyme fitness, log enrichment relative to wild type (log ratio); higher = more active; in vitro selection for triplet polymerase activity
Number only, no unit.

Can you look up the measured polymerase ribozyme fitness (log ratio) of GAACAAUCAGCCCUCAGAGCUCGAGAAUAUCUUCGGAUGCAGAGGAGGCAGGAUUCGGUGGCGCGAUAGCGCCAACGUCCUCAACCUCCAAUGAAUCCCACCACAUGAUGAUGCCUGAAGAGCCUUGGUUUUUUG [C3A U9A C28U C53A C94A] for me?
-4.65

Follow-up entry: GACCAAUCUGCCCUCAGAGCUCGAGAACAUCUUCGGAUGCAGAGGAGGCAGGCUUCGGUGGCGCGAUAGCGCCAACGUCCUCAACCUCCAAUGCAUCCCACCACACGAUGAUGCCGGAAGAGCCUUGGUUUUUUG [U106C U116G]
-2.03

Follow-up entry: GACCAGUCUGCUCUCAGAGCUCGAGAACAUCUUCGGAUGCAGAGGAGGCAGGCUUCGAUGGCGCGAUAGCGCCAACGUCCUCAACCUCCAAUGCAUCCCACCACAUGAUGAUCCCUGAAGAGCCUUGGUUUUUUG [A6G C12U G58A G113C]
-1.75

Follow-up entry: GACCAAUCUGGCCUCAGAGCUCGAGAACAUCUUCGGAUGCAGAGGAGGCAGGCUUCGGUGGCGCGAUAGCGCCAACGUCCUCAACCUCCAAUGCAUCCCACCAAAUGAUGAUGCCUGAAGAGCCUUGGUUUUUUG [C11G C104A]
-1.42

Follow-up entry: GACCAAUCUGUCCUCAGAGCUCGAGAACAUCUUCGGAUGCAGAGGAGGCUGGCUUCGGUGCCGCGAUAGCGCCAAAGUCCUCAACCUCCAAUGCAUCCCACCACAUGAUGCUGCCUGAAGAGCCUUGGUUUUUUG [C11U A50U G61C C76A A111C]
-6.51

Follow-up entry: GACCAAUCUGCCCUCAGAGCUCGAGAACAUCUUCGGAUGCAGAGGAGGCAGGCUUCGGUGGCGCGAUAGCGCCAACGUCCUCAACCUCCAAUGCAUCCCACCACAUGAUGAUGCAUGAAGAGCCUUGGAUCUUUG [C115A U129A U131C]
-0.649

Follow-up entry: GACCAAUGGGCGCUCAGAGCUCGAGAACAUCUUCGGAUGCAGAGGAGGGAGGCUUCGGUGGCGCGAUAGCGCCAACGUCCUCAACCUCCAUUGCAUCCCACCACAUGAUGAUGCCUGAAGAGCCUUGGUUUUUUG [C8G U9G C12G C49G A91U]
-2.4

Follow-up entry: GACCAAUCUGCCCUCAGAGCUCGAGAACAUCUUCGGAUGCAGAGGAGGCAGGCUUCGGUGGCGCGAUAGCGCCAACGUCCUCAACCUCCAAUGCAUCCCACCACAUGAUGAUGCCUGAAGCGUCUUGGUUUUUUG [A121C C123U]
0.54

Follow-up entry: GACCAAUCUGCCCUCAGAGCUCGAGAACAUCUUCGGAUGCAGAGGAGGCAGGCUUCGGUGGCGCGAUAGUGUCAACGUCCUCAACCUCCAAUGCAUCCCACCACAUGAUGAUGCCUGAAGGGCCUUGGUUUUUUG [C70U C72U A121G]
1.38

Follow-up entry: GACCAAUCUGCCCUCAGAGCUCGAGAACAUCUUCGGAUGCAGAGAAGGCAGGCUUCGGUGGCGCGAUAGCGCCAACGUCCUCAACCUCCAAUGCAUCCAACCACAUGAUGAUGCCUGAAGAGCCUUGGUUUUUUG [G45A C99A]
-6.7

Follow-up entry: GACCAAUCAGCCCUCAGAGCUCGAGAACAUCUUCGGAUGCAGAGGAGGCAGGCUUCGGUGGCUCGAUAGCGCCAACGUCCUCAACCUCCAAUGCAUCCCACCACAUGAUGAUGCCUGAACAGCCUUGGUUUUUUG [U9A G63U G120C]
0.699

Follow-up entry: GACCAAUCUGCCCUCAGAGCUCGAGAACAUCUUCGGAUUCAGAGGAGGCAGGCUUCGGUGCCGCGAUAGCGCCAACGUCCUCAACCUCCAAUGCAUCCCACCACAUGAUGAUGCCUGAAGAGCCUUGGUGUUUUG [G39U G61C U130G]
-2.15

Follow-up entry: GACCAAUCUUCCCUCAGAGCUUGAGAACAUCUUCGGAUGCAGAGGGGGCAGGCGUGGGUGACGCGAUAGCGCCUACGUCCUCAACCUCCAAAGCAUCCCACCACAUGAUGAUGACAGAAGAGCCUUGGUUUUUUG [G10U C22U A46G U54G C56G G61A A74U U92A C114A U116A]
-6.68

Follow-up entry: GACCAAUCUGCCCUCAGAGCUCGAGAACAUCUUCGGAUGCAGAGUAAGCAGGCUUCGGUGGCGCGAUAGCGCCAACGUCCUCAACCUCCAAUGCAUCCCACCACAUGAUGAUGCCCGAAGAGCCUUGGUUUUUUG [G45U G47A U116C]
-5.47

Follow-up entry: GACCAAUCUGCCCUCAGAGCUCGAGAACAUCUUCGGAUGCAGAGGAGGCAGGCUUCGGUGGCGCGAUAGCGCCAACGACCUCAACCUCCAAUGCAUCCCACCACAUGAUGAUGCCUGAAGAGCCUUGGUGUUUUG [U78A U130G]
-0.269

Follow-up entry: GACCAAUCUGCCCUCAGAGAUCGAGAACAUCUUCGGAUGCAGCGGAGGCAGGCUUCGGUGGCGCGAUAGCGCCAACGUCCUCAACCUCCAAUGUAUCCCACCACAUGAUGAUGCCUGAAGAGCCUUGGUUUUUUG [C20A A43C C94U]
-4.19

Follow-up entry: GACCAAUCUGCCUUCAGAGCUCGAGAACAUCUUCGGAUGCAGAGGAGGCAGGCUUCGGUGGUCCGAUAGCGCCAACGUCCUCAACCUCCAAUGCAUCCCACCACAUGAUGAAGCCUGAAGAGCCUUGGUUUUUUG [C13U C62U G63C U112A]
-0.823

Follow-up entry: GACCAAUUUGCCCUUAGAGCUCGAGAACAUCCUCGGAUGCAGAGGAGGCAGGCUUCGGUGGCGCGAUAGCUCCAACGUCCUCAACCUCCAAUGCAUCCUACCACAUGAUGAUGCCUGAAGAGCCUUGGUUUUUUG [C8U C15U U32C G71U C99U]
-4.38

Follow-up entry: GACCAAUCUGCCCUCAGAGCUCGAGAACAUCUUCGGAUGCAGAGGAGGCAGGCUUCGGUGGCUCGAUAGCGCCAACGUCCUCAACCUCCAAUGCAUCCCACCACAUGAUGAUGCCUGAAGAGCCUUGGUUUUUUU [G63U G135U]
-2.37

Follow-up entry: GAACAAUCUGCCCUCAGAGCUCGAGAACAUCUUCGGAUGCAGAGGAGACAGGCUUCGGUGGCGCGAUAGCGCCAACGUCCUCAACUUCCAAUGCAUCCCACCACAUGAUGAUGCCUGAAGGGCCUUCGUUGAUUG [C3A G48A C86U A121G G127C U131G U132A]
-0.349

Follow-up entry: GACCUAUCUGCCCUCAGAGCUCGAGAACAUCUUCGGAUGCAGAGGAGGCAGGCUUCGGUGGCGCGAUAGCGCCAACGUCCUCAACCUGCAAUGCAUCCCACCACAUGAUGAUGCCUAAACAGCCUUGGUUUUUUG [A5U C88G G117A G120C]
-4.11

Follow-up entry: GACCAAUCUGCCCUCAGAGCUCGAGAACAUCUUCGGAUGCAGAGGAGGCAGGCUUCCGUGGCGCGAUAGCGCCAACGUCCUCAACCUCCAAUGCAUCCCACCACAUGAUUAUGCCUGAAUAGCCUUGGUUUUUUG [G57C G110U G120U]
-4.33

Follow-up entry: GACCAAUCUGCCCUCAGAGCUCGAGAACAUCUUCGGAUGCAGAGGAGGCAGGAUUCGGUGGCGCGAUAUCGCCAACGGCCUAAACCUCCAAUGCAUCCCACCACAUGAUGAUGCCUGAAGAGCCUUGGUUUUUUG [C53A G69U U78G C82A]
-0.279
